organism: Rattus norvegicus; assay: Open TG-GATES - Regimen: Single; type: toxicity, organism-based, Sprague-Dawley; parameters: regimen Single, gender Male, age 6 weeks; details: in vivo, po, 1000 mg/kg, 6 h, tissue Blood, route gavage, dose level High
quantity: RBC (x10_4/ul)
Answers are plain numbers, in x10_4/ul.

• COC1=CC(=O)C[C@@H](C)[C@]12Oc1c(Cl)c(OC)cc(OC)c1C2=O = 582

Batch lookup, RBC per entry.
1. COc1ccc2[nH]c([S+]([O-])Cc3ncc(C)c(OC)c3C)nc2c1 (stereo not given)
2. CC(C)OC(=O)C(C)(C)Oc1ccc(C(=O)c2ccc(Cl)cc2)cc1 [FENOFIBRATE]

1. 602.4
2. 609.8

Batch lookup, RBC per entry.
1. CCOC(=O)CCC(=O)O[C@H]1[C@H](O[C@@H]2[C@@H](C)[C@H](O[C@H]3C[C@@](C)(OC)[C@@H](O)[C@H](C)O3)[C@@H](C)C(=O)O[C@H](CC)[C@@](C)(O)[C@H](O)[C@@H](C)C(=O)[C@H](C)C[C@@]2(C)O)O[C@H](C)C[C@@H]1N(C)C [ERYTHROMYCIN ETHYLSUCCINATE]
2. NC(N)=Nc1nc(CSCCC(N)=NS(N)(=O)=O)cs1

[647.6, 617]

* * *

Kindly state IP for each of the entries shown.
organism: Rattus norvegicus; assay: Open TG-GATES - Regimen: Single; assay type: toxicity, organism-based, Sprague-Dawley; parameters: regimen Single, gender Male, age 6 weeks; conditions: in vivo, po, 300 mg/kg, 9 h, tissue Plasma, route gavage, dose level Middle

Recorded IP, per entry:
- COc1ccc2[nH]c([S+]([O-])Cc3ncc(C)c(OC)c3C)nc2c1 (centres undefined) [OMEPRAZOLE]: 9.5 mg/dL
- NC(N)=Nc1nc(CSCCC(N)=NS(N)(=O)=O)cs1 [FAMOTIDINE]: 8.8 mg/dL
- CCOC(=O)CCC(=O)O[C@H]1[C@H](O[C@@H]2[C@@H](C)[C@H](O[C@H]3C[C@@](C)(OC)[C@@H](O)[C@H](C)O3)[C@@H](C)C(=O)O[C@H](CC)[C@@](C)(O)[C@H](O)[C@@H](C)C(=O)[C@H](C)C[C@@]2(C)O)O[C@H](C)C[C@@H]1N(C)C [ERYTHROMYCIN ETHYLSUCCINATE]: 9.4 mg/dL

// switching to the query molecule
Given the entry COC1=CC(=O)C[C@@H](C)[C@]12Oc1c(Cl)c(OC)cc(OC)c1C2=O [GRISEOFULVIN] , report its measured IP.
10.3 mg/dL

* * *

organism: Rattus norvegicus; assay: Open TG-GATES - Regimen: Daily Repeat; format: toxicity, organism-based, Sprague-Dawley; parameters: regimen Daily Repeat, gender Male, age 6 weeks; settings: in vivo, po, 300 mg/kg, 72 h, tissue Plasma, route gavage, dose level Middle, time 3 day
quantity: PL
Give the figure together with its unit, number first.

Batch lookup, PL per entry.
1. CCOC(=O)CCC(=O)O[C@H]1[C@H](O[C@@H]2[C@@H](C)[C@H](O[C@H]3C[C@@](C)(OC)[C@@H](O)[C@H](C)O3)[C@@H](C)C(=O)O[C@H](CC)[C@@](C)(O)[C@H](O)[C@@H](C)C(=O)[C@H](C)C[C@@]2(C)O)O[C@H](C)C[C@@H]1N(C)C [ERYTHROMYCIN ETHYLSUCCINATE]
2. CCOc1ccc(NC(=O)CC(C)O)cc1 (stereo not given)
3. NC(N)=Nc1nc(CSCCC(N)=NS(N)(=O)=O)cs1
4. COc1ccc2[nH]c([S+]([O-])Cc3ncc(C)c(OC)c3C)nc2c1 (stereo not given)

["133.8 mg/dL", "164.2 mg/dL", "141.4 mg/dL", "175.8 mg/dL"]

Given the entry `COC1=CC(=O)C[C@@H](C)[C@]12Oc1c(Cl)c(OC)cc(OC)c1C2=O` , report its measured PL.
141.6 mg/dL

* * *

species: Rattus norvegicus; assay: Open TG-GATES - Regimen: Single; assay type: toxicity, organism-based, Sprague-Dawley; set-up: regimen Single, gender Male, age 6 weeks; details: in vivo, po, 0 mg/kg, 9 h, tissue Plasma, route gavage, dose level Control
Classify by measured TC: True if it is equal to or exceeds 80 mg/dL, False if it is smaller.

Below are worked cases with known answers.
- CN(C)CCN(Cc1cccs1)c1ccccn1: False
- CC/C(=C(\c1ccccc1)c1ccc(OCCN(C)C)cc1)c1ccccc1 [TAMOXIFEN]: True
- CC1=C(/C=C/C(C)=C/C=C/C(C)=C/CO)C(C)(C)CCC1 [RETINOL]: False
- O=C(CCCN1CCC(O)(c2ccc(Cl)cc2)CC1)c1ccc(F)cc1 [HALOPERIDOL]: False
- C[C@@H]1C[C@H]2[C@@H]3CCC4=CC(=O)C=C[C@]4(C)[C@@]3(F)[C@@H](O)C[C@]2(C)[C@@]1(O)C(=O)CO [DEXAMETHASONE]: True
- NC(N)=Nc1nc(CSCCC(N)=NS(N)(=O)=O)cs1 [FAMOTIDINE]: False
- CCCNC(=O)NS(=O)(=O)c1ccc(Cl)cc1 [CHLORPROPAMIDE]: True
- CN1C(=O)CN=C(c2ccccc2)c2cc(Cl)ccc21 [DIAZEPAM]: False

// inclusive: TC at least 80 mg/dL? input: CN(C)CCCN1c2ccccc2CCc2ccc(Cl)cc21 [CLOMIPRAMINE]
False

// inclusive: TC at least 80 mg/dL? input: CN(C)CCCN1c2ccccc2CCc2ccccc21 [IMIPRAMINE]
False

// inclusive: TC at least 80 mg/dL? input: CC(C)OC(=O)C(C)(C)Oc1ccc(C(=O)c2ccc(Cl)cc2)cc1 [FENOFIBRATE]
True

// inclusive: TC at least 80 mg/dL? input: COc1ccc2[nH]c([S+]([O-])Cc3ncc(C)c(OC)c3C)nc2c1 (stereo not drawn) [OMEPRAZOLE]
False

// inclusive: TC at least 80 mg/dL? input: CCOC(=O)CCC(=O)O[C@H]1[C@H](O[C@@H]2[C@@H](C)[C@H](O[C@H]3C[C@@](C)(OC)[C@@H](O)[C@H](C)O3)[C@@H](C)C(=O)O[C@H](CC)[C@@](C)(O)[C@H](O)[C@@H](C)C(=O)[C@H](C)C[C@@]2(C)O)O[C@H](C)C[C@@H]1N(C)C [ERYTHROMYCIN ETHYLSUCCINATE]
False

// inclusive: TC at least 80 mg/dL? input: NNC(=O)c1ccncc1 [ISONIAZID]
False

// inclusive: TC at least 80 mg/dL? input: CCOc1ccc(NC(=O)CC(C)O)cc1 (stereo not drawn) [BUCETIN]
False

// inclusive: TC at least 80 mg/dL? input: COc1cc2c(c(OC)c1OC)-c1ccc(OC)c(=O)cc1[C@@H](NC(C)=O)CC2 [COLCHICINE]
False

* * *

species on record: Rattus norvegicus; experiment: Open TG-GATES - Regimen: Daily Repeat; type: toxicity, organism-based, Sprague-Dawley; set-up: regimen Daily Repeat, gender Male, age 6 weeks; conditions: in vivo, po, 300 mg/kg, […], tissue Blood, route gavage, dose level Middle, time 28 day
Classify by measured APTT: 1.0 if it is equal to or exceeds 20 s, 0.0 if it is smaller.

Below are worked cases with known answers.
- CCOc1ccc(NC(=O)CC(C)O)cc1 (stereo not given) [BUCETIN]: 0.0
- COc1ccc2[nH]c([S+]([O-])Cc3ncc(C)c(OC)c3C)nc2c1 (stereo not given) [OMEPRAZOLE]: 1.0
- CCOC(=O)CCC(=O)O[C@H]1[C@H](O[C@@H]2[C@@H](C)[C@H](O[C@H]3C[C@@](C)(OC)[C@@H](O)[C@H](C)O3)[C@@H](C)C(=O)O[C@H](CC)[C@@](C)(O)[C@H](O)[C@@H](C)C(=O)[C@H](C)C[C@@]2(C)O)O[C@H](C)C[C@@H]1N(C)C [ERYTHROMYCIN ETHYLSUCCINATE]: 1.0

Now turn to the next compound.
// inclusive: APTT at least 20 s? input: COC1=CC(=O)C[C@@H](C)[C@]12Oc1c(Cl)c(OC)cc(OC)c1C2=O [GRISEOFULVIN]
1.0

* * *

species on record: Rattus norvegicus; test: Open TG-GATES - Regimen: Daily Repeat; format: toxicity, organism-based, Sprague-Dawley; design: regimen Daily Repeat, gender Male, age 6 weeks; settings: in vivo, po, 0 mg/kg, […], tissue Blood, route gavage, dose level Control, time 14 day
quantity: Neu (%)
Give bare numbers, in %.

• CCOc1ccc(NC(=O)CC(C)O)cc1 (stereo not drawn) = 20.4

Batch lookup, Neu per entry.
1. CN1C(=O)CN=C(c2ccccc2)c2cc(Cl)ccc21
2. CN(C)CCN(Cc1cccs1)c1ccccn1

1: 14.8; 2: 14.4
